Biological target: trypsin (UniProt P00760)
Sequence (P00760 24-246): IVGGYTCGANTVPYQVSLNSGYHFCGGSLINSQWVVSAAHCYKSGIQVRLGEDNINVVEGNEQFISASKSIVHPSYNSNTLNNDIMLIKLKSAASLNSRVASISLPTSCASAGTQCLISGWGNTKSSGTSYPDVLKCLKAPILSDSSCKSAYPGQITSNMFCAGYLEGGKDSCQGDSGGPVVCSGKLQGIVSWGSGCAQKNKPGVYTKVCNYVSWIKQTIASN
Assay: SPR
Details: three carboxy-dT near centre (9 bases free at 3', 14 at 5'); embedded in imprinted polymer nanoparticle; SPR: PBST (10 mM phosphate buffered saline, pH 7.4, 0.01% Tween 20), 25 °C; nanoparticles immobilized on carboxymethyl dextran Au chips, protein 4-64 nM; n = 3
readout: pKd
Please keep in mind that pKd is minus log10 of the molar concentration; only the number is needed.

Prompt: Entry ATCTACGAATTCATCAGGGCTAAAGAGTGCAGAGTTACTTAG [AptaMIP-4 oligo] : reported pKd = ?
Response: 5.01

###

Biological target: trypsin (UniProt P00760)
Assay: SPR
Details: one carboxy-dT at 5' end; embedded in imprinted polymer nanoparticle; SPR: PBST (10 mM phosphate buffered saline, pH 7.4, 0.01% Tween 20), 25 °C; nanoparticles immobilized on carboxymethyl dextran Au chips, protein 4-64 nM; n = 3
readout: pKd
Recall that pKd is obtained by taking minus log10 of the concentration measured in molar.

Prompt: If you can, please state the reported pKd value of ATCTACGAATTCATCAGGGCTAAAGAGTGCAGAGTTACTTAG [AptaMIP-7 oligo] .
Response: 5.31
